tested on: UACC-62 melanoma; test: NCI-60 one-dose screen, 48 h; settings: 10 µM unless noted
The panel holds about 83,000 compounds, 20% with a hit somewhere; the sample as a whole holds those more often. The source made the active and inactive calls. How the source made its calls: active means growth percent below 10; inactive means the rest.
Outcome codes: 1 for active, 0 for inactive

compound | class_name
COC(=O)[C@H](Cc1cn(C)cn1)NC(=O)[C@H](CC(=O)OCc1ccccc1)NC(=O)Nc1cc(C(F)(F)F)cc(C(F)(F)F)c1 | 1
CC1Cc2cc(F)ccc2-n2cccc21 (centres undefined) | 0
COc1ccc(/C=N/c2cc(C(C)(C)C)nn2-c2ccccc2)cc1 | 0
Nc1nc2c(c3ncncc13)C(c1cccc(C(F)(F)F)c1)Cc1ncncc1-2 (centres undefined) | 0
O=C(O)COc1ccc([N+](=O)[O-])cc1Cl | 0
Cc1ccc2c(c1)C(=O)CCS2 | 0
CN(C)CCOC(=O)C(C)(C)C | 0
CC1(C)N=C(N)N=C(N)N1c1cccc(CCCCOc2ccccc2)c1 | 0
CCCCCCCCCCCCCCCCCC1=NCCN1CS(=O)(=O)O | 0
